The measured values listed here are drawn from patent US20240415914A1.

# assay.info: Stability of cannabinoid and Vitamin E components of Beverage 1 (AB White) stored at 8° C. and 21-25° C., LCMSMS over 570 days
# Assay type: physicochemical
# measurement.context: beverage stored at 8° C., day 60
Class true: Stability in AB White, 8° C. (content by LCMSMS) at least 2 µg/mL. Class false: Stability in AB White, 8° C. (content by LCMSMS) below 2 µg/mL.

> print(dat)
                                   compound  assigned.category
1  CCCCCc1cc2c(c(O)c1C(=O)O)[C@@H]1C=C(C)CC[C@H]1C(C)(C)O2 [D9 THCA, delta-9-tetrahydrocannabinolic acid]              false
2  CCCCCc1cc(O)c2c(c1)OC(C)(C)c1ccc(C)cc1-2               true
3  C=C(C)[C@@H]1CCC(C)=C[C@H]1c1c(O)cc(CCCCC)c(C(=O)O)c1O              false
4  CCCc1cc(O)c2c(c1)OC(C)(C)[C@@H]1CCC(C)=C[C@@H]21 [THCV, delta-9-tetrahydrocannabivarin]               true
5  CCCCCc1cc(O)c2c(c1)OC(C)(CCC=C(C)C)C=C2 (stereo not shown)              false
6  CCCCCc1cc(O)c2c(c1)OC1(C)CCC3C1C2C3(C)C (stereo not shown)              false
7  C=C(C)[C@@H]1CCC(C)=C[C@H]1c1c(O)cc(CCCCC)cc1O [CBD, cannabidiol, reference compound]               true

---

# assay.info: Stability of cannabinoid and Vitamin E components of Beverage 1 (AB White) stored at 8° C. and 21-25° C., LCMSMS over 570 days
# Type: physicochemical
# measurement.context: beverage stored at 21-25° C., day 24
Class satisfied: Stability in AB White, 21-25° C. (content by LCMSMS) at least 2 µg/mL. Class not satisfied: Stability in AB White, 21-25° C. (content by LCMSMS) below 2 µg/mL.

> print(dat)
                                   compound  assigned.category
1   CCCCCc1cc(O)c(C/C=C(\C)CCC=C(C)C)c(O)c1          satisfied
2  CCCCCc1cc(O)c2c(c1)OC(C)(CCC=C(C)C)C=C2 (stereo not drawn)      not satisfied
3  C=C(C)[C@@H]1CCC(C)=C[C@H]1c1c(O)cc(CCCCC)c(C(=O)O)c1O      not satisfied
4  CCCc1cc(O)c2c(c1)OC(C)(C)[C@@H]1CCC(C)=C[C@@H]21 [THCV, delta-9-tetrahydrocannabivarin]          satisfied
5  CCCCCc1cc(O)c2c(c1)OC(C)(C)[C@@H]1CCC(C)=C[C@@H]21 [D9 THC, delta-9-tetrahydrocannabinol, reference compound]          satisfied
6  CCCCCc1cc(O)c2c(c1)OC1(C)CCC3C1C2C3(C)C (stereo not drawn)      not satisfied
7  CCCCCc1cc(O)c2c(c1)OC(C)(C)c1ccc(C)cc1-2          satisfied
8  CCCCCc1cc2c(c(O)c1C(=O)O)[C@@H]1C=C(C)CC[C@H]1C(C)(C)O2 [D9 THCA, delta-9-tetrahydrocannabinolic acid]      not satisfied
9  C=C(C)[C@@H]1CCC(C)=C[C@H]1c1c(O)cc(CCC)cc1O      not satisfied

---

Listed next: entries and their corresponding Stability in AB White, 8° C. (content by LCMSMS).
# assay.info: Stability of cannabinoid and Vitamin E components of Beverage 1 (AB White) stored at 8° C. and 21-25° C., LCMSMS over 570 days
# Assay type: physicochemical
# measurement.context: beverage stored at 8° C., day 26
parameter.measured: Stability in AB White, 8° C. (content by LCMSMS) (µg/mL)

> print(dat)
                                   compound  numeric.value
1  C=C(C)[C@@H]1CCC(C)=C[C@H]1c1c(O)cc(CCCCC)c(C(=O)O)c1O           1.75
2  C=C(C)[C@@H]1CCC(C)=C[C@H]1c1c(O)cc(CCCCC)cc1O [CBD, cannabidiol, reference compound]          27.73
3  CCCCCc1cc(O)c2c(c1)OC1(C)CCC3C1C2C3(C)C (stereo not drawn)          0.534

---

# assay.info: Stability of cannabinoid and Vitamin E components of Beverage 1 (AB White) stored at 8° C. and 21-25° C., LCMSMS over 570 days
# Type: physicochemical
# measurement.context: beverage stored at 21-25° C., day 240
parameter.measured: Stability in AB White, 21-25° C. (content by LCMSMS) (µg/mL)

> print(dat)
                                   compound  numeric.value
1  CCCCCc1cc2c(c(O)c1C(=O)O)[C@@H]1C=C(C)CC[C@H]1C(C)(C)O2 [D9 THCA, delta-9-tetrahydrocannabinolic acid]          0.892
2  CCCCCc1cc(O)c2c(c1)OC1(C)CCC3C1C2C3(C)C (stereo not shown)          0.515
3  CCCc1cc(O)c2c(c1)OC(C)(C)[C@@H]1CCC(C)=C[C@@H]21 [THCV, delta-9-tetrahydrocannabivarin]           3.41
4  C=C(C)[C@@H]1CCC(C)=C[C@H]1c1c(O)cc(CCCCC)c(C(=O)O)c1O           1.73

---

# assay.info: Stability of cannabinoid and Vitamin E components of Beverage 2 (AB Red) stored at 8° C. and 21-25° C., LCMSMS over 570 days
# measurement.context: 21-25° C., 150 days
parameter.measured: Stability of Cannabinoids in AB Red (µg/mL)

> print(dat)
                                   compound                   parameter.measured  numeric.value
1  CCCCCc1cc2c(c(O)c1C(=O)O)[C@@H]1C=C(C)CC[C@H]1C(C)(C)O2 [D9 THCA, delta-9-tetrahydrocannabinolic acid]  Stability of Cannabinoids in AB Red           1.28
2  CCCCCc1cc(O)c2c(c1)OC(C)(C)c1ccc(C)cc1-2  Stability of Cannabinoids in AB Red           2.75
3  CCCCCc1cc(O)c2c(c1)OC1(C)CCC3C1C2C3(C)C (stereo not drawn)  Stability of Cannabinoids in AB Red           0.49
4   CCCCCc1cc(O)c(C/C=C(\C)CCC=C(C)C)c(O)c1  Stability of Cannabinoids in AB Red           4.65
5  C=C(C)[C@@H]1CCC(C)=C[C@H]1c1c(O)cc(CCCCC)c(C(=O)O)c1O  Stability of Cannabinoids in AB Red           1.58
6  CCCc1cc(O)c2c(c1)OC(C)(C)[C@@H]1CCC(C)=C[C@@H]21 [THCV, delta-9-tetrahydrocannabivarin]  Stability of Cannabinoids in AB Red           3.17
7  CCCCCc1cc(O)c2c(c1)OC(C)(C)[C@@H]1CCC(C)=C[C@@H]21 [D9 THC, delta-9-tetrahydrocannabinol, reference compound]  Stability of Cannabinoids in AB Red           12.4
8  CCCCCc1cc(O)c2c(c1)OC(C)(CCC=C(C)C)C=C2 (stereo not drawn)  Stability of Cannabinoids in AB Red           0.29
9  C=C(C)[C@@H]1CCC(C)=C[C@H]1c1c(O)cc(CCC)cc1O  Stability of Cannabinoids in AB Red           0.20

---

# assay.info: Stability of cannabinoid and Vitamin E components of Beverage 1 (AB White) stored at 8° C. and 21-25° C., LCMSMS over 570 days
# Format: physicochemical
# measurement.context: beverage stored at 21-25° C., day 1
Class t: Stability in AB White, 21-25° C. (content by LCMSMS) at least 2 µg/mL. Class f: Stability in AB White, 21-25° C. (content by LCMSMS) below 2 µg/mL.

> print(dat)
                                   molecule  assigned.category
1  CCCCCc1cc(O)c2c(c1)OC(C)(C)c1ccc(C)cc1-2                  t
2  CCCCCc1cc(O)c2c(c1)OC(C)(C)[C@@H]1CCC(C)=C[C@@H]21 [D9 THC, delta-9-tetrahydrocannabinol, reference compound]                  t
3  C=C(C)[C@@H]1CCC(C)=C[C@H]1c1c(O)cc(CCCCC)c(C(=O)O)c1O                  f
4  CCCCCc1cc(O)c2c(c1)OC(C)(CCC=C(C)C)C=C2 (stereo not drawn)                  f
5  C=C(C)[C@@H]1CCC(C)=C[C@H]1c1c(O)cc(CCC)cc1O                  f
6  CCCCCc1cc(O)c2c(c1)OC1(C)CCC3C1C2C3(C)C (stereo not drawn)                  f
7  CCCCCc1cc2c(c(O)c1C(=O)O)[C@@H]1C=C(C)CC[C@H]1C(C)(C)O2 [D9 THCA, delta-9-tetrahydrocannabinolic acid]                  f
8  CCCc1cc(O)c2c(c1)OC(C)(C)[C@@H]1CCC(C)=C[C@@H]21 [THCV, delta-9-tetrahydrocannabivarin]                  t
9   CCCCCc1cc(O)c(C/C=C(\C)CCC=C(C)C)c(O)c1                  t
